Please provide measured D2 inhibition [% Cells alive] for the entries that follow.
Tested on: dengue viruses (DENV, serotype D2)
Type: cell-based, dengue virus
condition summary: 5 μM
Answers are plain numbers, in % Cells alive.

Solved cases below.
{"compound": "COc1ccc(C(OC[C@H]2O[C@@H](n3cc(F)c(=O)[nH]c3=O)C[C@@H]2O)(c2ccccc2)c2ccc(OC)cc2)cc1", "outcome measure": "D2 inhibition [% Cells alive]", "reading": 0}
{"compound": "O=c1[nH]c(=O)n([C@@H]2O[C@H](COC(c3ccccc3)(c3ccccc3)c3ccccc3)[C@@H](O)[C@H]2O)cc1F", "outcome measure": "D2 inhibition [% Cells alive]", "reading": 0}
{"compound": "COc1ccc(C(OC[C@H]2O[C@@H](n3ccc(=O)[nH]c3=O)[C@H](O)[C@@H]2O)(c2ccccc2)c2ccc(OC)cc2)cc1", "outcome measure": "D2 inhibition [% Cells alive]", "reading": 0}
{"compound": "COc1ccc(C(OCC2OC(n3ccc(NC(C)=O)nc3=O)CS2)(c2ccccc2)c2ccc(OC)cc2)cc1 (centres unmarked)", "outcome measure": "D2 inhibition [% Cells alive]", "reading": 0}

Now examine the next entry.
Entry under review: `Cc1cn([C@H]2C[C@H](OC(c3ccccc3)(c3ccccc3)c3ccccc3)[C@@H](COC(c3ccccc3)(c3ccccc3)c3ccccc3)O2)c(=O)[nH]c1=O` . Reported D2 inhibition [% Cells alive]?
0

----------
Please provide measured D2 inhibition [% Cells alive] for the entries that follow.
System: dengue viruses (DENV, serotype D2)
Type: cell-based, dengue virus
condition summary: 5 μM
One number for each entry, in % Cells alive.

# map each compound to its D2 inhibition [% Cells alive]
1. COc1ccc(C(OC[C@H]2O[C@@H](n3ccc(=O)[nH]c3=O)[C@H](F)[C@@H]2O)(c2ccccc2)c2ccc(OC)cc2)cc1
2. Cc1cn([C@H]2C[C@H](O)[C@@H](COC(c3ccccc3)(c3ccccc3)c3ccccc3)O2)c(=O)[nH]c1=O
3. O=c1[nH]c(NC(c2ccccc2)(c2ccccc2)c2ccccc2)nc2c1ncn2CCC(COC(c1ccccc1)(c1ccccc1)c1ccccc1)COC(c1ccccc1)(c1ccccc1)c1ccccc1

1: 0; 2: 0; 3: 0

----------
Please provide measured D2 inhibition [% Cells alive] for the entries that follow.
Tested on: dengue viruses (DENV, serotype D2)
Assay type: cell-based, dengue virus
condition summary: 10 μM
Answers are plain numbers, in % Cells alive.

{"compound": "COc1ccc(C(OC[C@H]2O[C@@H](n3ccc(=O)[nH]c3=O)[C@H](F)[C@@H]2O)(c2ccccc2)c2ccc(OC)cc2)cc1 [16 H]", "target entity": "dengue viruses (DENV, serotype D2)", "D2 inhibition [% Cells alive] / % Cells alive": 0}
{"compound": "O=c1ccn([C@@H]2O[C@H](COC(c3ccccc3)(c3ccccc3)c3ccccc3)[C@@H](O)[C@H]2F)c(=O)[nH]1 [16 D, 5′‐O‐trityl‐2′‐fluoro‐2′‐deoxyuridine]", "target entity": "dengue viruses (DENV, serotype D2)", "D2 inhibition [% Cells alive] / % Cells alive": 0}

Entry under review: O=c1[nH]c(=O)n([C@H]2C[C@H](O)[C@@H](COC(c3ccccc3)(c3ccccc3)c3ccccc3)O2)cc1I [14 D, 5′‐O‐Trityl‐5‐iodo‐2′‐deoxyuridine] . Reported D2 inhibition [% Cells alive]?
0

----------
System: yellow fever (YFV, 17 D strain of ASIBI)
Type: cell-based, yellow fever virus
condition summary: 5 μM
Please provide measured YFV inhibition [% Cells alive] for the entries that follow.
One number for each entry, in % Cells alive.

Solved cases below.
{"molecule": "O=c1[nH]c(=O)n([C@H]2C[C@H](O)[C@@H](COC(c3ccccc3)(c3ccccc3)c3ccccc3)O2)cc1I [14 D, 5′‐O‐Trityl‐5‐iodo‐2′‐deoxyuridine]", "YFV inhibition [% Cells alive] / % Cells alive": 0}
{"molecule": "Cc1cn([C@@H]2O[C@H](COC(c3ccccc3)(c3ccccc3)c3ccccc3)[C@@H](O)[C@H]2O)c(=O)[nH]c1=O [19 D, 5′‐O‐trityl‐5‐methyluridine]", "YFV inhibition [% Cells alive] / % Cells alive": 0}
{"molecule": "COc1ccc(C(OCC2OC(n3ccc(NC(C)=O)nc3=O)CS2)(c2ccccc2)c2ccc(OC)cc2)cc1 (centres unmarked) [12 H, 5′‐O‐Dimetoxytrityl‐N‐acetyl‐lamivudine]", "YFV inhibition [% Cells alive] / % Cells alive": 0}
{"molecule": "Cc1cn([C@H]2C[C@H](O)[C@@H](COC(c3ccccc3)(c3ccccc3)c3ccccc3)O2)c(=O)[nH]c1=O [Compound 1, 5′‐O‐trityl‐thymidine]", "YFV inhibition [% Cells alive] / % Cells alive": 0}

Now examine the next entry.
State its YFV inhibition [% Cells alive] on yellow fever (YFV, 17 D strain of ASIBI): COc1ccc(C(OC[C@H]2O[C@@H](n3cc(F)c(=O)[nH]c3=O)[C@H](O)[C@@H]2O)(c2ccccc2)c2ccc(OC)cc2)cc1 [6 H, 5′‐O‐dimethoxytrityl‐5‐fluorouridine]
9.22

----------
Please provide measured YFV inhibition [% Cells alive] for the entries that follow.
System: yellow fever (YFV, 17 D strain of ASIBI)
Assay type: cell-based, yellow fever virus
condition summary: 5 μM

Solved cases below.
{"smiles repr": "COc1ccc(C(OC[C@H]2O[C@@H](n3ccc(=O)[nH]c3=O)[C@H](F)[C@@H]2O)(c2ccccc2)c2ccc(OC)cc2)cc1", "outcome measure": "YFV inhibition [% Cells alive]", "reading": "0 % Cells alive"}
{"smiles repr": "O=c1[nH]c(=O)n([C@@H]2O[C@H](COC(c3ccccc3)(c3ccccc3)c3ccccc3)[C@@H](O)[C@H]2O)cc1F", "outcome measure": "YFV inhibition [% Cells alive]", "reading": "0 % Cells alive"}

Entry under review: `O[C@H]1[C@H](O)[C@@H](COC(c2ccccc2)(c2ccccc2)c2ccccc2)O[C@H]1n1cnc2c(NC(c3ccccc3)(c3ccccc3)c3ccccc3)nc(F)nc21` . Reported YFV inhibition [% Cells alive]?
0 % Cells alive

----------
System: yellow fever (YFV, 17 D strain of ASIBI)
Format: cell-based, yellow fever virus
condition summary: 10 μM
Please provide measured YFV inhibition [% Cells alive] for the entries that follow.
One number for each entry, in % Cells alive.

Solved cases below.
{"compound": "Cc1cn([C@H]2C[C@H](O)[C@@H](COC(c3ccccc3)(c3ccccc3)c3ccccc3)O2)c(=O)[nH]c1=O", "value unit": "% Cells alive", "YFV inhibition [% Cells alive]": 1.25}
{"compound": "Cc1cn([C@H]2C[C@H](OC(c3ccccc3)(c3ccccc3)c3ccccc3)[C@@H](COC(c3ccccc3)(c3ccccc3)c3ccccc3)O2)c(=O)[nH]c1=O", "value unit": "% Cells alive", "YFV inhibition [% Cells alive]": 0}
{"compound": "COc1ccc(C(OCC2OC(n3ccc(NC(C)=O)nc3=O)CS2)(c2ccccc2)c2ccc(OC)cc2)cc1 (centres unmarked)", "value unit": "% Cells alive", "YFV inhibition [% Cells alive]": 0}
{"compound": "O=c1[nH]c(NC(c2ccccc2)(c2ccccc2)c2ccccc2)nc2c1ncn2CCC(COC(c1ccccc1)(c1ccccc1)c1ccccc1)COC(c1ccccc1)(c1ccccc1)c1ccccc1", "value unit": "% Cells alive", "YFV inhibition [% Cells alive]": 0}

Now examine the next entry.
Entry under review: `O[C@H]1[C@H](O)[C@@H](COC(c2ccccc2)(c2ccccc2)c2ccccc2)O[C@H]1n1cnc2c(NC(c3ccccc3)(c3ccccc3)c3ccccc3)nc(F)nc21` . Reported YFV inhibition [% Cells alive]?
0.28
